system: SN12C renal; test: NCI-60 one-dose screen, 48 h (100 = growth as untreated, 0 = no growth, -100 = all killed); details: 10 µM unless noted
Compounds without any hit were thinned out: in the full panel of roughly 83,000, 20% have a hit.
Assignment: determine reported growth for the given compounds.
State the answer as a number, implicitly in %.

[in] State, for SN12C renal, measured growth of the compound listed here: COC(=O)[C@@H](NC(=O)[C@@H](OC)[C@@H]1Cc2cc3cc(OC4CC(OC5CC(O)C(O)C(C)O5)C(O)C(C)O4)c(C)c(O)c3c(O)c2C(=O)[C@H]1OC1CC(OC2CC(OC3CC(C)(O)C(O)C(C)O3)C(O)C(C)O2)C(O)C(C)O1)C(C)C (stereo partly specified)
[out] 13.2

[in] Under SN12C renal: report growth of O=C(NC1CCNCC1)c1[nH]ncc1NC(=O)c1c(Cl)cccc1Cl .
[out] 12.7

[in] Give reported growth for CCNC(=O)Nc1nc2ccc(Oc3ccnc(C(=O)NC)c3)cc2s1 (SN12C renal)
[out] 91.9

[in] Give growth; test system SN12C renal; compound C=CC(=O)N(C)[C@H]1C[C@H]2OC(C)(C1OC)n1c3ccccc3c3c4c(c5c6ccccc6n2c5c31)C(=O)NC4 (stereo partly specified)
[out] 6.85

[in] Please look at CCn1cc(-c2ccnc3[nH]c(-c4cccc(CN(C)C)c4)cc23)c(-c2ccc(NC(=O)N(C)C)cc2)n1 and tell me its recorded growth on SN12C renal.
[out] 24.1

[in] Supply growth measured with SN12C renal for C=C1C[C@H](O)[C@H](Br)C(C)(C)[C@@]12CCC(C)=C(Cl)C2 .
[out] 22.6

* * *

test system: RPMI-8226 leukemia; experiment: NCI-60 one-dose screen, 48 h (100 = growth as untreated, 0 = no growth, -100 = all killed); conditions: 10 µM unless noted
The panel holds about 83,000 compounds, 20% with a hit somewhere; the sample as a whole holds those more often. Calls of active or inactive are those of the source. Rule for the calls: active = growth percent below 10; inactive = the rest.
property label: growth

[in] Recall the reported growth of CC(C)n1c(NCCc2ccc(O)c(O)c2)nc2c1c(=O)n(C)c(=O)n2C when tested on RPMI-8226 leukemia.
[out] 77.4% (inactive)

[in] Quote RPMI-8226 leukemia growth for entry CSc1nc2ncnc(SC)c2[nH]1 .
[out] 106% (inactive)

[in] Write down the reported growth (system: RPMI-8226 leukemia) of O=C1CC(c2ccc(Cl)cc2)c2ncn(-c3cccc(Cl)c3)c2N1 (centres undefined)
[out] 58% (inactive)

[in] Consider the compound COc1cc2c(cc1O)c(=O)n(CCN(C)C)c1c3cc4c(cc3ncc21)OCO4 tested on RPMI-8226 leukemia; state its growth.
[out] -30.3% (active)

* * *

test system: SF-539 CNS; experiment: NCI-60 one-dose screen, 48 h (100 = growth as untreated, 0 = no growth, -100 = all killed); settings: 10 µM unless noted
This is part of a sample that, as a whole, favours compounds with a hit. Of some 83,000 tested, about 20% had one in any assay.
Assign growth to each entry below.
Answer in %, number only, no unit symbol.

[in] Give the value of growth reported for the following: C[C@@H]1COC(Nc2ccc3ncnc(Nc4ccc(OCc5nccs5)c(Cl)c4)c3c2)=N1
[out] 65.5

[in] Give recorded growth. O=C(COc1cccc(/C=C2\Cc3ccc(Cl)cc3C2=O)c1)Nc1nccs1
[out] 79.9

[in] Given the compound Cc1cc(N2CCOCC2)nc(N(CCNc2ccnc3cc(Cl)ccc23)Cc2cccs2)n1 , write its reported growth.
[out] -65.7

* * *

test system: SW-620 colon; experiment: NCI-60 one-dose screen, 48 h; conditions: 10 µM unless noted
Compounds without any hit were thinned out: in the full panel of roughly 83,000, 20% have a hit. Activity calls are given as the source filed them. How the source made its calls: active means growth percent below 10; inactive means the rest.
One label from this list, please: YES for active, NO for inactive

[in] Record request — test call for C[C@@H](Nc1cc(F)cc(F)c1)c1cc(C(=O)N(C)C)cc2c(=O)cc(N3CCOCC3)oc12
[out] NO

[in] What call does the record list for Cc1cc(NCC(=O)Nc2ccc(-c3nc4ccccc4s3)cc2)no1 ?
[out] NO

[in] Hi team, can someone confirm the assay call for COc1ccc2c(CCCCC(c3ccccc3)c3ccccc3)c3[n+](cc2c1OC)CCc1cc2c(cc1-3)OCO2 ?
[out] YES

[in] Entry Cc1cc(C)n(CC(=O)Nc2ccc(-c3nc4ccccc4s3)cc2)n1 : call = ?
[out] NO

[in] What did the test return for O=C(NOC[C@H](O)CO)c1ccc(F)c(F)c1Nc1ccc(I)cc1F ?
[out] NO

[in] GET /call?item= CN1[C@@H]2CC[C@H]1/C(=C\c1ccccc1)C1=C2[C@@H](c2ccccc2)C(C#N)=C(N)O1 returns the recorded outcome of this test.
[out] NO

[in] Lab log entry: ClCc1ccc(-c2ccc(Cn3cnc4c(Cl)nc(Cl)nc43)cc2)cc1 — outcome as called in the assay?
[out] YES

[in] I would be grateful if you could indicate the recorded call for O=C(Cc1ccc(/C=C/C(=O)c2ncc[nH]2)cc1)Nc1ccc(S(F)(F)(F)(F)F)cc1 .
[out] NO

[in] GET /call?item= COc1ncc(-c2ccc3nccc(-c4ccnnc4)c3c2)cc1NS(=O)(=O)c1ccc(F)cc1F returns the recorded outcome of this test.
[out] YES

[in] I would be grateful if you could indicate the recorded call for COCCN1CCN(Cc2ccc(-c3n[nH]c4c3C(=O)c3c(NC(=O)NN5CCOCC5)cccc3-4)cc2)CC1 .
[out] YES

[in] State the result this test recorded for NC(=O)Nc1cc(-c2cccc(F)c2)sc1C(=O)N[C@H]1CCCNC1 .
[out] YES

[in] Call for entry CC(C)(C)CC(C)(C)Nc1c(-c2c(O)c3ccccc3oc2=O)nc2c(Cl)cc(C(F)(F)F)cn12 :
[out] NO

[in] Recorded test call requested for Cn1c(=O)c(F)c(Nc2ccc(I)cc2F)c2c(=O)n(C[C@@H](O)CO)cnc21
[out] NO

[in] Which outcome was assigned to COC1CCC(N2C(=O)CNc3ncc(-c4ccc(C(C)(C)O)nc4)nc32)CC1 (stereo not given) in this test?
[out] NO

[in] Give the logged outcome of this assay for the following compound: O=CC(OC(=O)c1ccccc1)C(OC(=O)c1ccccc1)C(COC(c1ccccc1)(c1ccccc1)c1ccccc1)OC(=O)c1ccccc1 (stereo not given)
[out] YES

* * *

system: NCI-H23 lung; experiment: NCI-60 one-dose screen, 48 h (100 = growth as untreated, 0 = no growth, -100 = all killed); settings: 10 µM unless noted
The panel holds about 83,000 compounds, 20% with a hit somewhere; the sample as a whole holds those more often.
Field: growth. Provide a value for each of the compounds that follow.
Number only, in %; omit the unit.

[in] Provide the reported growth (system: NCI-H23 lung) for Cc1cccc(Cl)c1NC(=O)c1cnc(Nc2cc(N3CCOCC3)cc(N3CCOCC3)c2)s1
[out] 73.8

[in] Find the measured growth of Cc1sc2c(c1C)c(=O)nc1c(-c3nc4ccccc4s3)n[nH]n12 with NCI-H23 lung as test system.
[out] 88.7

[in] Consider the compound CNC(=O)c1cc(Oc2cccc3nc(Nc4ccc(Oc5ccccc5)cc4)ccc23)ccn1 tested on NCI-H23 lung; state its growth.
[out] 78

[in] Fetch value of growth on NCI-H23 lung for COc1cc(CCc2cc(NC(=O)c3ccc(N4C[C@@H](C)N[C@@H](C)C4)cc3)n[nH]2)cc(OC)c1 .
[out] 40.1

[in] Please tell me the measured growth for NC1=Nc2ccccc2N(O)N1 ; system: NCI-H23 lung.
[out] 102

[in] Fill: growth (NCI-H23 lung) for this compound Cc1ncc(-c2ccnc(Nc3ccc(S(C)(=O)=O)cc3)n2)n1C(C)C
[out] -33.8

[in] Give reported growth for O=C(CNc1nc(-c2ccc(Cl)cc2)cs1)Nc1ccc(-c2nc3ccccc3s2)cc1 (NCI-H23 lung)
[out] 87.6

[in] System NCI-H23 lung. Read-out growth. Item c1cc[n+](Cc2c3ccccc3cc3c2ccc2ccccc23)cc1 . Report value.
[out] 16.9

[in] Output reported growth of the compound CC(N)C(Cc1ccccc1)c1ccc(Cl)cc1 (stereo unspecified) on NCI-H23 lung.
[out] 92.5

[in] Consider the compound CCNC(=O)Nc1nc2ccc(Oc3ccnc(C(=O)NC)c3)cc2s1 tested on NCI-H23 lung; state its growth.
[out] 90.1

[in] Write growth of FC(F)(F)c1ccc(CNc2ccc(Cc3c[nH]c4ncc(Cl)cc34)cn2)cn1 ; system used: NCI-H23 lung
[out] 23.7

[in] Report growth from NCI-H23 lung testing of O=C1C=CC2(NN=C(c3ccccc3)N2c2ccc(Cl)cc2)c2cccc(O)c21 (stereo unspecified)
[out] 13.6

[in] Print NCI-H23 lung growth for O=S1(=O)OC(c2ccc(O)c(Cl)c2)(c2ccc(O)c(Cl)c2)c2ccccc21 .
[out] 97.8

[in] With NCI-H23 lung as the test system, provide measured growth for this compound: FC(F)c1nc2ccccc2n1-c1nc(N2CCOCC2)nc(N2CCOCC2)n1
[out] 0.202

[in] Write growth of Cc1cc(N(CCNc2ccnc3cc(Cl)ccc23)Cc2ccc3c(c2)OCO3)nc(N2CCCC2)n1 ; system used: NCI-H23 lung
[out] 20.8

[in] Using NCI-H23 lung as the test system, report measured growth of CCOC(=O)Sc1ncnc2nc[nH]c12 .
[out] 64.8

[in] Name the recorded growth of COC(=O)N[C@@H](C)CNc1nccc(-c2cn(C(C)C)nc2-c2cc(Cl)cc(NS(C)(=O)=O)c2F)n1 , assay system NCI-H23 lung.
[out] 59.2

[in] Provide the reported growth (system: NCI-H23 lung) for CCn1cc(-c2ccnc3[nH]c(-c4cccc(CN(C)C)c4)cc23)c(-c2ccc(NC(=O)N(C)C)cc2)n1
[out] 17.6

[in] Tell me growth of C=CC(=O)Nc1cccc(Nc2nc(Nc3ccc(N4CCN(C(C)=O)CC4)cc3OC)ncc2C(F)(F)F)c1 when tested on NCI-H23 lung.
[out] 26.7

[in] Give reported growth for CO[C@H]1C[C@@H]2CC[C@@H](C)[C@@](O)(O2)C(=O)C(=O)N2CCCC[C@H]2C(=O)O[C@H]([C@H](C)C[C@@H]2CC[C@@H](O)[C@H](OC)C2)CC(=O)[C@H](C)/C=C(\C)[C@@H](O)[C@@H](OC)C(=O)[C@H](C)C[C@H](C)\C=C/C=C/C=C/1C (NCI-H23 lung)
[out] 51.3

[in] Write growth of COc1cnc2c(c1)C(=O)c1c-2n(CCCN2CCOCC2)c(=O)c2cc(Cl)ccc12 ; system used: NCI-H23 lung
[out] 20.6

[in] Param request: growth | system NCI-H23 lung | item COc1cc2c(c(OC)c1)C1c3ccccc3NC(=O)N1CC2 (stereo unspecified)
[out] 24

[in] Please report the measured growth for NC(=O)c1n[nH]n2c1nc(=O)c1c3c(sc12)CCCC3 tested on NCI-H23 lung.
[out] 101

[in] # lookup: NCI-H23 lung growth, key = Cc1cnc(NC(=O)Nc2cc(Br)c(C)cc2OC[C@@H]2CNCCO2)cn1
[out] 15

[in] Name the recorded growth of COc1cc(-c2nc(C(=O)Nc3ccc(C)cc3)nn2-c2ccc(F)c(F)c2)cc(OC)c1OC , assay system NCI-H23 lung.
[out] 97.1

[in] Answer briefly: growth recorded on NCI-H23 lung for CCN(CC)CCNc1ccc(N=Nc2cnc3ccccc3c2)c2ccccc12
[out] -92.6

[in] Write down measured growth (NCI-H23 lung) for this compound. C=CC(=O)N1CCC[C@@H](n2nc(-c3ccc(Oc4ccccc4)cc3)c3c(N)ncnc32)C1
[out] 95.3

[in] GET growth | system: NCI-H23 lung | item: COc1ncc(-c2ccc3nccc(-c4ccnnc4)c3c2)cc1NS(=O)(=O)c1ccc(F)cc1F
[out] 3.23

[in] Fill in growth for CCN(CCCOc1ccc2c(Nc3cc(CC(=O)Nc4cccc(F)c4)[nH]n3)ncnc2c1)CCOP(=O)(O)O tested with NCI-H23 lung.
[out] 73.4

[in] Write growth of O=C(c1ccc(F)c(F)c1Nc1ccc(I)cc1F)N1CC(O)([C@@H]2CCCCN2)C1 ; system used: NCI-H23 lung
[out] 13.9

[in] Give NCI-H23 lung growth for the following compound: Cn1cc(-c2ccc(F)c(C(F)(F)F)c2)nc1C1CCN(c2ncnc3[nH]ncc23)CC1
[out] 72.3

[in] Fill: growth (NCI-H23 lung) for this compound C[C@@H](Oc1cc(-n2cnc3ccc(CN4CCN(C)CC4)cc32)sc1C(N)=O)c1ccccc1C(F)(F)F
[out] 32.9

[in] Write growth of CC[C@@H]1C(=O)N(C)c2cnc(Nc3ccc(C(=O)NC4CCN(C)CC4)cc3OC)nc2N1C1CCCC1 ; system used: NCI-H23 lung
[out] 8.04

[in] Enter recorded growth with NCI-H23 lung for O=C(O)C1(Cc2cccc(Nc3nccs3)n2)CCC(Oc2cccc(Cl)c2F)CC1 (stereo unspecified) here.
[out] 66

[in] Using NCI-H23 lung as the test system, report measured growth of Cc1ccccc1N1C(c2ccccc2)=NNC12C=CC(=O)C=C2Cl (stereo unspecified) .
[out] 98.1

[in] For NCI-H23 lung, give the measured growth of the entry Cn1c(=O)c(F)c(Nc2ccc(I)cc2F)c2c(=O)n(C[C@@H](O)CO)cnc21
[out] 21.5
